Assay: reversal of MRP1-mediated doxorubicin resistance, pilot screen, H69AR cells, doxorubicin co-treatment (AID 601)
Conditions: H69AR cells, CellTiter-Glo, 72 h; compound alone cytotoxicity; at 10 µM
experimental_readout: viability (%)
Provide only the numeric value, understood in %.

Data point: COc1cc(OC)cc(-n2nnnc2SCC(=O)N2CCCC2)c1 ; viability = 87.4

Data point: N#Cc1c(N2C(=O)C3C4C=CC(C4)C3C2=O)sc2c1CCC2 (stereo unspecified) ; viability = 90.3

Data point: COCCOC(=O)c1c(C)nc(SCC(=O)Nc2ccc(OC)cc2)c(C#N)c1-c1ccco1 ; viability = 91

Data point: CCOc1ccc(C2C(C#N)=C(N)Oc3cc(C)n(CCN(C)C)c(=O)c32)cc1OCC (stereo unspecified) ; viability = 101

Data point: O=c1[nH]c2sc3c(c2c2nncn12)CCCC3 ; viability = 100

Data point: CCCCn1nc(C(=O)N2CCc3ccccc32)c2ccccc2c1=O ; viability = 93.9

Data point: c1ccc(Nc2ccccc2Nc2ccccn2)nc1 ; viability = 91.7

Data point: CCOc1cc(C(=O)Nc2ccon2)cc(OCC)c1OCC ; viability = 99.4

Data point: CCN(CC)CCCn1c(=S)[nH]c2cc(Cl)ccc2c1=O ; viability = 97

Data point: O=C(C1CCC1)N1CCc2cc(S(=O)(=O)Nc3ccc4c(c3)OCO4)ccc21 ; viability = 91.6

Data point: O=c1[nH]cnc2c1C1(CCCC1)Cc1ccccc1-2 ; viability = 100

All figures here come from PubChem BioAssay.
